# protein stability index annotations
# ASSAY NAME: protein stability index of a GFP-peptide fusion (GPS, HEK-293T) (PSI 1-6); higher = more stable;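 note: 24-mer peptide tiles fused after GFP, lentivirally expressed, FACS-sorted into six equal bins by GFP/DsRed ratio, decoded by Illumina sequencing, PSI is the read-weighted mean bin number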
# MEASUREMENT CONDITIONS: treatment: DMSO; c terminus: a fixed tail appended
QUANTITY MEASURED: protein stability index

RESIDUE STRING: LSTLAGIRVMVHGRNHTPFLGHHS [SCNN1D]
RECORDED VALUE: 2.69
--
RESIDUE STRING: VKEAPAPTPTSLEVSSPPDTTEEV [PDZK1]
RECORDED VALUE: 5.57
--
RESIDUE STRING: YILDNETNFVVQVSVFIGVLIDLW [CLPTM1]
RECORDED VALUE: 2.74
--
RESIDUE STRING: LNPHVHLVGDDAACIAYIRLTQYM [CAMK2D]
RECORDED VALUE: 2.32
--
RESIDUE STRING: NQPTRFGKLLLRLPSLRTVSSSVI [NR2F2]
RECORDED VALUE: 2.44
--
RESIDUE STRING: LKNIELFDKLALRFHGRLLFLKDV [KCTD13]
RECORDED VALUE: 2.66
--
RESIDUE STRING: SYGGGSASSQHSEGSRSSGSNRSG [DVL3]
RECORDED VALUE: 5.23
--
RESIDUE STRING: NEHSAHCPHTPEFSVTGGTEEKSS [RPAIN]
RECORDED VALUE: 5.44
--
RESIDUE STRING: PSVIQEIHQESGKAPSTDDATWAA [C10orf62]
RECORDED VALUE: 4.29
--
RESIDUE STRING: VLRHFHLLSDGSNTLSVSYKKGRM [SLC6A17]
RECORDED VALUE: 2.12
--
RESIDUE STRING: ERKKNLTLALEALVQLRGRLTSQD [ALG2]
RECORDED VALUE: 2.79

----------
# ASSAY NAME: protein stability index of a GFP-peptide fusion (GPS, HEK-293T) (PSI 1-6); higher = more stable
# MEASUREMENT CONDITIONS: treatment: MLN4924 1 uM, 8 h; c terminus: a fixed tail appended
QUANTITY MEASURED: protein stability index

RESIDUE STRING: EVNSRCYQPEPFACGIEHCSVHYV [FBXO34]
RECORDED VALUE: 2.33
//
RESIDUE STRING: IVRLRTIGELLAPAAPFDKKCGRE [WSB1]
RECORDED VALUE: 2.85
//
RESIDUE STRING: TLIMLLSLAAFSVISVVSYLILAL [RTN3]
RECORDED VALUE: 2.12
//
RESIDUE STRING: INCKGRSKSNLGWTPLHLACYFGH [OSBPL1A]
RECORDED VALUE: 2.28
//
RESIDUE STRING: LYVSGLPKTMSQKEMEQLFSQYGR [ELAVL3]
RECORDED VALUE: 2.66
//
RESIDUE STRING: SCKENCTCSSCLLRAPTISDLLND [EDARADD]
RECORDED VALUE: 4.83
//
RESIDUE STRING: LVVALDVDATLEHVQDPQNTVKVQ [INTS4]
RECORDED VALUE: 3.21
//
RESIDUE STRING: SQPATPTPLQSRTSIVQAAAGGVP [PDLIM7]
RECORDED VALUE: 4.6
//
RESIDUE STRING: GLAMALEPNTTFLRKSLKAALKHL [FANCE]
RECORDED VALUE: 2.54
//
RESIDUE STRING: NINDRIKELGTLIPKSSDPEMRWN [TFE3]
RECORDED VALUE: 3.77
//
RESIDUE STRING: NFVYNSPRGYFHTFAGDTCQVALN [WASL]
RECORDED VALUE: 2.27
//
RESIDUE STRING: FELALQLAEMKDDSDSEKQQQIHH [VPS39]
RECORDED VALUE: 4.8
//
RESIDUE STRING: PAGKTPVPAGEEEGELGEYRQKLL [VPS39]
RECORDED VALUE: 5.45
//
RESIDUE STRING: KENREEARFQDKQYSSHHTAEKRK [CHGB]
RECORDED VALUE: 4.89
//
RESIDUE STRING: PEASDQEEHLSPLDFLHSANFSLG [RNF180]
RECORDED VALUE: 4.64
//
RESIDUE STRING: YLRDSSPAPCADGPAGGLADLSSG [PWWP2B]
RECORDED VALUE: 4.8
//
RESIDUE STRING: RELLDRAMREAIQSYPSQDKPLPP [SOAT2]
RECORDED VALUE: 3.95

----------
# ASSAY NAME: protein stability index of a GFP-peptide fusion (GPS, HEK-293T) (PSI 1-6); higher = more stable
# MEASUREMENT CONDITIONS: treatment: DMSO; c terminus: a fixed tail appended

RESIDUE STRING: LWVQGDIFRSKLKNRPSSEGSINK [CDC14A]
protein stability index: 2.62
//
RESIDUE STRING: ERSVFSERTEESSAVQYFQFYGYL [CARM1]
protein stability index: 2.08
//
RESIDUE STRING: VGQDNGAVMEFHVSEDFNKMNFIK [WDFY1]
protein stability index: 3.29
//
RESIDUE STRING: ILHIMVKVVKGHRPELPPVCRARP [RIPK4]
protein stability index: 3.35
//
RESIDUE STRING: QRQAIKGAFYRRAQRLRPQDEPRQ [KCNG1]
protein stability index: 3.87
//
RESIDUE STRING: QCLEDLVNHYSEVADGLCCVLTTP [SLA]
protein stability index: 2.11
//
RESIDUE STRING: GQINVVKHLLNLGVEIDEINVYGN [ANKRD44]
protein stability index: 2.32
//
RESIDUE STRING: ALFKANRLEKAVAAAYTFLQRNPK [P3H4]
protein stability index: 2.48
//
RESIDUE STRING: QAIDHGCEHICVNSDDSYTCECLE [MATN2]
protein stability index: 5.43
//
RESIDUE STRING: ALMHELSNDGARRQFEFYLEEMIL [BTBD10]
protein stability index: 2.24

----------
Reported protein stability index values for the following sequences.
# ASSAY NAME: protein stability index of a GFP-peptide fusion (GPS, HEK-293T) (PSI 1-6); higher = more stable
# MEASUREMENT CONDITIONS: treatment: MLN4924 1 uM, 8 h; c terminus: a fixed tail appended

RESIDUE STRING: WREFHYIQSKLGIVSLLLGTIHAL [STEAP1]
protein stability index: 3.15
//
RESIDUE STRING: RCRQSLEDSESLRIKEVEHMTRHL [LRRC45]
protein stability index: 3.46
//
RESIDUE STRING: LLDATVAGGQTRLQASDRYRDLAG [FCHSD1]
protein stability index: 3.86
//
RESIDUE STRING: ETEEMLGKKQEYLENRIQREIALA [CHMP4C]
protein stability index: 4.58
//
RESIDUE STRING: QRQAIKGAFYRRAQRLRPQDEPRQ [KCNG1]
protein stability index: 4.16
//
RESIDUE STRING: PPPLDQYVKFDAVSGDYYPIIYFN [CLPTM1]
protein stability index: 2.37
//
RESIDUE STRING: QEANARERNRMHGLNDALDNLRKV [NEUROD6]
protein stability index: 4.56

----------
Below, each entry is listed alongside its reported protein stability index.
# ASSAY NAME: protein stability index of a GFP-peptide fusion (GPS, HEK-293T) (PSI 1-6); higher = more stable
# MEASUREMENT CONDITIONS: treatment: MLN4924 1 uM, 8 h; c terminus: a fixed tail appended
QUANTITY MEASURED: protein stability index

RESIDUE STRING: IDGKGRGVIATKQFSRGDFVVEYH [KMT5A]
RECORDED VALUE: 3.03

RESIDUE STRING: YNLSPEADESVLWQLFGPFGAVTN [ELAVL3]
RECORDED VALUE: 2.51

RESIDUE STRING: ESIRRAQVSQVKGAARLALLQGAG [FCHSD1]
RECORDED VALUE: 3.36

RESIDUE STRING: KTSLAPYVKVFEHFLENLDKSRKG [PRIM1]
RECORDED VALUE: 3.12

RESIDUE STRING: FRRTDGRCLIWGRKPKVIECSYTS [DHCR7]
RECORDED VALUE: 2.34

RESIDUE STRING: LLRDRTGQQSDTAQLELYQLQVES [SCARA5]
RECORDED VALUE: 4.56

RESIDUE STRING: CGPIAGSRQALSFEVPPCNYDPEK
RECORDED VALUE: 4.13

RESIDUE STRING: AFGAPIGGTLFSLEEGSSFWNQGL [CLCN6]
RECORDED VALUE: 2.47

RESIDUE STRING: STLVEVTLGEVPAAESPDPPQSPQ [MAGEA3]
RECORDED VALUE: 5.27

RESIDUE STRING: IEFNPRIGKWFDFKLFFNGRPGIV [DHCR7]
RECORDED VALUE: 2.91

RESIDUE STRING: RDNGHSNRDEHSSRGYRNHRSSRE [RBMY1A1]
RECORDED VALUE: 5.24

RESIDUE STRING: KLNEQSPTRCTLEAGAMTFHYIIE [SEC22B]
RECORDED VALUE: 2.25

RESIDUE STRING: LMKGGADLFVENMPGFPDNIRPSS [APMAP]
RECORDED VALUE: 3.77

RESIDUE STRING: ALHLAARNGHLATVKLLVEEKADV [RIPK4]
RECORDED VALUE: 3.06

RESIDUE STRING: TARPFGAPPPADSAPQQNGQPLRP [PDLIM7]
RECORDED VALUE: 4.92

RESIDUE STRING: LCGPHAKAPYLCEATHEPAAARIR
RECORDED VALUE: 3.61

RESIDUE STRING: NETVNSIFAQGAPRSSLAESFFVD [ADAMTSL2]
RECORDED VALUE: 3.86

RESIDUE STRING: MVTQILGAMESQVGGGPAGPALPN [ELAVL3]
RECORDED VALUE: 3.01

RESIDUE STRING: ARNGNAEEVRQLLETMARNEVIAD [OSBPL1A]
RECORDED VALUE: 4.07

RESIDUE STRING: TPGDCPPGRRDEDAGEGIQCSQRM [TMEM175]
RECORDED VALUE: 5.25

RESIDUE STRING: AFDYIKQRRSMVSPNFGFMGQLLQ [DUSP5]
RECORDED VALUE: 2.27

RESIDUE STRING: RVLQNLLTIEERYLPQCSYFKCVQ [CCND2]
RECORDED VALUE: 2.69

RESIDUE STRING: VTSTSQSPHSPDSSQSSLAQEEEE [DDIT3]
RECORDED VALUE: 5.64

RESIDUE STRING: VSVRVQPRGRAHLLPNPYQQDFLG [C22orf15]
RECORDED VALUE: 2.13

RESIDUE STRING: DLDPLELIALANRFCLPHLVALAE [RHOBTB1]
RECORDED VALUE: 2.14

RESIDUE STRING: VGKSEILESLQDGAAESPYSHLGG [RAB40A]
RECORDED VALUE: 4.46

RESIDUE STRING: THFASQEFFSANAISDQLLGAGSD [ADAMTSL2]
RECORDED VALUE: 4.23

RESIDUE STRING: KTESSGIETEPTVHHLPLSTEKVV [EPB41L3]
RECORDED VALUE: 5

RESIDUE STRING: TLNILLYEAQDGRGPDNALLEATG [KCTD10]
RECORDED VALUE: 3.29

RESIDUE STRING: FIPAHVAFDKKVLKFDAYFQEDVP [EFHC1]
RECORDED VALUE: 2.57

RESIDUE STRING: PKKLLNPVKASRSHQELHRELLMN [FAM107A]
RECORDED VALUE: 3.19

RESIDUE STRING: TQEKKRLSRTNEELLWKLQTGDPT [MTUS2]
RECORDED VALUE: 4.36

RESIDUE STRING: NAAHLGDKRRDLAHLAAEVEGKCL [TRIM39]
RECORDED VALUE: 4.5

RESIDUE STRING: AEHWKHKKEESGRERKKNWGGQED [PBXIP1]
RECORDED VALUE: 4.96

RESIDUE STRING: DAIRGKVGYTRGLHVWQITWAMRQ [SPSB1]
RECORDED VALUE: 2.36

RESIDUE STRING: CGDYFPDGITNGASWYSLSKGMQD [CPN1]
RECORDED VALUE: 2.74

RESIDUE STRING: DHNEAMKPEEPPQNLLREKIMKLP [PCMTD1]
RECORDED VALUE: 4.66
